Conditions: buffer; pH 7.4; 200.0 µM
Parameter Measured: solubility kinetic (µg/mL)
Field: numeric (µg/mL). Do not append units.

Request: # lookup: solubility kinetic of CCN(CC)C(=O)C1=C(C)NC(=S)NC1c1ccc(C)s1 (stereo not given)
Response: 44.1

Request: What value of solubility kinetic has been reported for the following molecule? CCN(CC(=O)NC(C)C)C(=O)c1cc(S(=O)(=O)N2CCCCC2)ccc1N1CCCCC1
Response: 10.7

Request: # lookup: solubility kinetic of CC(=O)Nc1c(-c2ccc(Cl)cc2)c(=O)c2ccccc2n1C
Response: 14.8

Request: I am curious: what solubility kinetic value has been reported for CC(=O)c1c(C)[nH]c(C(=O)OCC(=O)Nc2ccc3c(c2)OCCO3)c1C ?
Response: 3.8

Request: Which solubility kinetic reading was recorded for the molecule CCOC(=O)C1=C(C)NC(SC)=C(C#N)C1CC(C)C (stereo not given) ?
Response: 2.3

Request: What value of solubility kinetic has been reported for the following molecule? CCOc1ccccc1Nc1ccc(C(=O)O)cc1[N+](=O)[O-]
Response: 40.8

Request: Fill blank: measured solubility kinetic of the molecule COc1cc([N+](=O)[O-])ccc1NC(=O)N1CCCCCC1 is ____.
Response: 32.1

Request: Given the molecule Cc1cc(C(=O)COc2ccc([N+](=O)[O-])cc2)c(C)n1C1CC1 , what is its reported solubility kinetic?
Response: 2.2

Request: Fill blank: measured solubility kinetic of the molecule Cc1cccc(CC(=O)c2c[nH]c3ccccc23)c1 is ____.
Response: 0.9

Request: What measured solubility kinetic goes with O=C(CN1C(=O)NC2(CCCC2)C1=O)Nc1ccc(Cl)cc1F ?
Response: 49.8

Request: What solubility kinetic value was documented for this molecule, CC(=O)N1CCN(c2ccccc2NC(=O)c2ccc(C#N)cc2F)CC1 ?
Response: 52.6

Request: Sample O=C(NC1CCSc2ccccc21)c1ccccc1Br (stereo not given) — what was its solubility kinetic?
Response: 8.6

* * *

Details: buffer; pH 7.4; 200.0 µM
Parameter Measured: solubility kinetic

Request: What does the data say about its solubility kinetic? Entry: O=C(CSc1nc(-c2ccc(F)cc2)cs1)NCC1CCCO1 (stereo unspecified)
Response: > 52.9 µg/mL

Request: What value of solubility kinetic has been reported for the following compound? O=C(COC(=O)c1c(F)cccc1F)c1ccc[nH]1
Response: 39.3 µg/mL

Request: Fill blank: measured solubility kinetic of the compound COc1ccccc1N1CCN(C(=O)c2cc(C)oc2C)CC1 is ____.
Response: > 47.2 µg/mL

Request: Form field: reported solubility kinetic of O=C1C2C3c4ccccc4C(c4ccccc43)[C@@H]2C(=O)N1c1ccccn1 (stereo partly specified)
Response: 2.9 µg/mL

Request: Field request: solubility kinetic | item: Cc1ccc(C)c(OCCCN2CCNCC2)c1.Cl
Response: 39.3 µg/mL

Request: Please report the recorded solubility kinetic for O=C(Nc1cccc(NC(=O)C2C3CC4OC(=O)C2C4C3)c1)c1ccccc1 (stereo unspecified) .
Response: 46.7 µg/mL

Request: # solubility kinetic lookup, item COC(=O)c1cc2cc(Cl)ccc2nc1SC
Response: < 0.6 µg/mL

Request: Quick one: solubility kinetic of Cc1cc(C(=O)Nc2ccc(F)cc2C)cs1 ?
Response: 24.4 µg/mL

Request: Quick check: solubility kinetic of COC(=O)C(CO)Nc1ncnc2onc(-c3ccc(F)cc3)c12 (stereo unspecified) ?
Response: > 49.8 µg/mL

Request: Find the recorded solubility kinetic belonging to CCOC(=O)c1c(NC(=O)COC(=O)C2CC2C)sc(C)c1C (stereo unspecified) and report it.
Response: < 0.7 µg/mL

Request: Data request, read-out solubility kinetic, for CC(=O)N1CCN(c2ccc(S(=O)(=O)N3CCOCC3)cc2[N+](=O)[O-])CC1
Response: > 59.8 µg/mL

Source: PubChem BioAssay AID1996
